ASSAY_NOTES: ATG_TCF_b_cat_CIS: Attagene CIS-FACTORIAL HepG2 Assay for human T-Cell-Factor with beta-catenin (TCF/b-cat) (AID 2282965)
CONDITION_DETAILS: HepG2 TCF/beta-catenin cis-reporter transcription, actives raise or lower the signal
Activity calls are given as the source filed them. How the source made its calls: active means hit-call score of the fitted dose curve at least 0.9, where 1 is the maximum; inactive means score below 0.9.
Lab note: assign the record to one of 1.0 = active, 0.0 = inactive

// query Called result for `CCCCCCCCOC(=O)c1ccc(O)cc1`
// result 0.0

----------
ASSAY_NOTES: TOX21_p53_BLA_p3_viability: Viability Assessment in the Tox21 HCT-116 p53 Agonism Beta-lactamase Assay, Phase 3 (AID 2283593);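 further: cells exposed to compound for 16 h before reading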
Inconclusive results are not listed. Activity calls are given as the source filed them. The calls were made as follows: active = hit-call score of the fitted dose curve at least 0.9, where 1 is the maximum; inconclusive = response in the unintended direction; inactive = score below 0.9.
Lab note: assign the record to one of Yes (active), No (inactive)

Check out these entries, answers already filled in.
{"columns": ["COMPOUND", "QUALITATIVE_LABEL"],
 "data": [
  ["Cc1cc(O)c2c(c1)C(=O)c1cc(O)cc(O)c1C2=O", "No"],
  ["CC1=CC(=O)[C@H]2C[C@@H]1C2(C)C", "No"],
  ["CC(C)(CO)CO", "No"],
  ["CCCCCC(=O)O[C@]1(C(C)=O)CC[C@H]2[C@@H]3CCC4=CC(=O)CC[C@]4(C)[C@H]3CC[C@@]21C", "No"],
  ["CCOC(=O)C(=O)OCC", "No"]
]}

// query Called result for C=CCOCC(O)CO (stereo unspecified)
// result No

// query Called result for `O=Cc1ccccc1O`
// result No

// query Called result for `CCCCCc1cccc(=O)o1`
// result No

// query Called result for `O=S1(=O)CC=CC1`
// result No

// query Called result for `N=C1N=C(N)c2ccccc21`
// result Yes

// query Called result for `NC(=O)c1cnccn1`
// result No

// query Called result for CCCCCCC(O)CCOC(C)=O (stereo unspecified)
// result No

// query Called result for `O=C(C=Cc1ccccc1)OCCCc1ccccc1`
// result No

// query Called result for `C[C@]12CC[C@@H]3c4ccc(O)cc4CC[C@H]3[C@@H]1CC[C@@H]2O`
// result No

// query Called result for `C=C(C)C(=O)OCCC[Si](OC)(OC)OC`
// result No

Data origin, for the record: PubChem BioAssay (EPA / NIEHS)
